# Target under test: rat NMUR2 (Rattus norvegicus)
# Sequence (Q9ESQ4 whole entry): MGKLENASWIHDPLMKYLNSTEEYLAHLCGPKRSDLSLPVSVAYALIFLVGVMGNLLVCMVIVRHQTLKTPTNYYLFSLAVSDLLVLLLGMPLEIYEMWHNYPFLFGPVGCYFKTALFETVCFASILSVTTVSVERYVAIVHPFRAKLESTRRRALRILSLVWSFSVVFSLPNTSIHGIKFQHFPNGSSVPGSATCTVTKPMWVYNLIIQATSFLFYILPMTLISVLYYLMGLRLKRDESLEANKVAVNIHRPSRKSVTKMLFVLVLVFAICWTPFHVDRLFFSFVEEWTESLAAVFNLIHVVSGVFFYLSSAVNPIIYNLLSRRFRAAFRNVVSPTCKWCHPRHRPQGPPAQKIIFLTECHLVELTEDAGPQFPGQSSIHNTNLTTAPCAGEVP
# Experiment notes: FLIPR calcium mobilization assay, rat NMUR2
# Assay type: cell-based
# Design: expressed in transfected cells; host or cells: FLP-In CHO or HEK-293 FLP-In cells (pcDNA5)
# Protocol conditions: maximum response at 1 μM compared to hNMU-25; rat NMUR2
Starred links: 1 amine or outer side, 2 acyl side, 3 side chain; linkers in the order of their positions; H or OH if unused. Residues, ends and D or L forms follow the SMILES beside them. *: point of attachment. X1 = CC(C)CCC[C@@H](C)[C@H]1CC[C@H]2[C@@H]3CC=C4C[C@@H](OC(=O)C*)CC[C@]4(C)[C@H]3CC[C@]12C; X2 = CCN1C(=O)CC(SC[C@H](NC(C)=O)C(=O)NCCCOCCOCCOCCCN*)C1=O; Succinimide(1-Et,3-yl) = CCN1C(=O)CC(*)C1=O; Suc = O=C(CCC(=O)[*:2])[*:1]

{"columns": ["Compound", "Unit of measure", "% Activity"],
 "data": [
  ["CCN1C(=O)CC(SC[C@H](NC(C)=O)C(=O)NCCCOCCOCCOCCCNC(=O)CCC(=O)N[C@@H](Cc2ccccc2)C(=O)N[C@@H](CC(C)C)C(=O)N[C@@H](Cc2ccccc2)C(=O)N[C@@H](CCCNC(=N)N)C(=O)N2CCC[C@H]2C(=O)N[C@@H](CCCNC(=N)N)C(=O)N[C@@H](CC(N)=O)C(N)=O)C1=O (stereo partly shown) [NMU15, Ac-C1-Ttds-FLFRPRN-CONH2] ({X2-Suc}-FLFRPRN-NH2)", "%", 100],
  ["CCN1C(=O)CC(SC[C@H](NC(C)=O)C(=O)NCC(=O)N[C@@H](Cc2ccc(O)cc2)C(=O)N[C@@H](Cc2ccccc2)C(=O)N[C@@H](CC(C)C)C(=O)N[C@@H](Cc2ccccc2)C(=O)N[C@@H](CCCNC(=N)N)C(=O)N2CCC[C@H]2C(=O)N[C@@H](CCCNC(=N)N)C(=O)N[C@@H](CC(N)=O)C(N)=O)C1=O (stereo partly shown) [NMU6] (Ac-C(Succinimide(1-Et,3-yl))GYFLFRPRN-NH2)", "%", 100],
  ["CCN1C(=O)CC(SC[C@H](NC(C)=O)C(=O)N[C@@H](C)C(=O)N[C@@H](CO)C(=O)N[C@@H](CCC(N)=O)C(=O)N[C@@H](CO)C(=O)N[C@@H](CCCNC(=N)N)C(=O)NCC(=O)N[C@@H](Cc2ccc(O)cc2)C(=O)N[C@@H](Cc2ccccc2)C(=O)N[C@@H](CC(C)C)C(=O)N[C@@H](Cc2ccccc2)C(=O)N[C@@H](CCCNC(=N)N)C(=O)N2CCC[C@H]2C(=O)N[C@@H](CCCNC(=N)N)C(=O)N[C@@H](CC(N)=O)C(N)=O)C1=O (stereo partly shown) [NMU17] (Ac-C(Succinimide(1-Et,3-yl))ASQSRGYFLFRPRN-NH2)", "%", 100],
  ["CC(=O)N[C@@H](CSCC(=O)O[C@H]1CC[C@@]2(C)C(=CC[C@H]3[C@@H]4CC[C@H]([C@H](C)CCCC(C)C)[C@@]4(C)CC[C@@H]32)C1)C(=O)NCC(=O)N[C@@H](Cc1ccc(O)cc1)C(=O)N[C@@H](Cc1ccccc1)C(=O)N[C@@H](CC(C)C)C(=O)N[C@@H](Cc1ccccc1)C(=O)N[C@@H](CCCNC(=N)N)C(=O)N1CCC[C@H]1C(=O)N[C@@H](CCCNC(=N)N)C(=O)N[C@@H](CC(N)=O)C(N)=O [NMU11] (Ac-C(X1)GYFLFRPRN-NH2)", "%", 33.2]
]}
